- Assay system: T1, Recombinant CD127 Fc Chimera (10975-H03H, Sino Biological) (human, UniProt P16871 21-239)
- T1 construct: Bought protein; also called hCD127-Ig; human CD127Fc; not shown: constant fragment of an immunoglobulin
- T1 chain: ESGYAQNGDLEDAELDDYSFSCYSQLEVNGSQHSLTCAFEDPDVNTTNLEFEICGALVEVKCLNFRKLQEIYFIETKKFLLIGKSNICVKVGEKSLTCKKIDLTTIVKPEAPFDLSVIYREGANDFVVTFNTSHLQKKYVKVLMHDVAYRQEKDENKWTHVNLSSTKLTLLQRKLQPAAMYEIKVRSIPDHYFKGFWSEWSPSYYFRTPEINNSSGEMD
- Experiment: ELISA, human CD127Fc coated, revealed with anti-human kappa antibody; printed as ED 50
Assay endpoint: EC50 (ng/mL)
Write it as a number; the unit ng/mL goes unstated.

I'd like to know its EC50. The binder in question is N13B2-h2 (humanized N13B2) (antibody, V domains shown, Variable regions only) VH: QVQLVESGGGLVKPGGSLRLSCAVSGFTLSDYYMAWIRQAPGKGLEWVSTISASGLRTYYPDSVKGRFTISRDNAKNSLYLQMNSLRAEDTAVYYCARPMSAHYGFNYFDYWGQGTLVTVSS VL: EIVMTQSPATLSVSPGERATLSCRTSEDIYNGLAWYQQKPGQAPRLLIYSANSLHIGIPARFSGSGSGTEFTLTISSLQSEDFAVYYCQQYYDYPLAFGGGTKVEIK
0.6

FYI, the data here is from patent US20170129959A1.
